system_under_test: AChE from Electrophorus electricus (Electrophorus electricus, UniProt O42275)
Sequence (O42275 24-633): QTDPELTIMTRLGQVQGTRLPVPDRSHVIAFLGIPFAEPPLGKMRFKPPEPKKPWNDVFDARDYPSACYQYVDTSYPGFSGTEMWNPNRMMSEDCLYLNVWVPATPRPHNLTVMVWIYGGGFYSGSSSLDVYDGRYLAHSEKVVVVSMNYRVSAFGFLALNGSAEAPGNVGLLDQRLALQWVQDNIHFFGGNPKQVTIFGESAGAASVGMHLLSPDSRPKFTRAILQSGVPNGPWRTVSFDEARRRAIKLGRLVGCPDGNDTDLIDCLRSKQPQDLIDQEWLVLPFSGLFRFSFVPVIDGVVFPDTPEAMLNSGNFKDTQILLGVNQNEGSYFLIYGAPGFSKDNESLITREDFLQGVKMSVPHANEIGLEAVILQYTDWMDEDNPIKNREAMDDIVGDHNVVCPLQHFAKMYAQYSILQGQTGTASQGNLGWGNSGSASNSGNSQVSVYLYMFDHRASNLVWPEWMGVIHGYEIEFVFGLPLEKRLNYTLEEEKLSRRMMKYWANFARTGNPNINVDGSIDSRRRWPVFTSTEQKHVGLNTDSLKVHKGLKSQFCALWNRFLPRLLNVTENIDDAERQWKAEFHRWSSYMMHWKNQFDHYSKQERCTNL
pIC50: −log10 of the molar value.
Classification field: enter True for pIC50 values not below 5, False for values below it.

{"columns": ["entry_smiles", "group_label"],
 "data": [
  ["COc1cccc2cc(-c3ccc(NC(=O)c4cccc(Cl)c4)cc3)c(=O)oc12", "False"],
  ["O=C(Nc1ccc(-c2cc3ccc(O)c(O)c3oc2=O)cc1)c1ccc(CCl)cc1", "False"],
  ["COc1cccc2cc(-c3ccc(NC(=O)c4cccc(F)c4)cc3)c(=O)oc12", "True"],
  ["O=C(Nc1ccc(-c2cc3ccc(O)cc3oc2=O)cc1)c1ccc(CCl)cc1", "False"],
  ["O=C(Nc1ccc(-c2cc3ccc(O)cc3oc2=O)cc1)c1cccc(F)c1", "False"],
  ["Cc1cccc(C(=O)Nc2ccc(-c3cc4ccc(O)cc4oc3=O)cc2)c1", "False"],
  ["COc1cccc2cc(-c3ccc(NC(=O)c4cccs4)cc3)c(=O)oc12", "True"],
  ["COc1cccc2cc(-c3ccc(NC(=O)c4ccc(Cl)nc4)cc3)c(=O)oc12", "False"],
  ["O=C(Nc1ccc(-c2cc3ccc(O)cc3oc2=O)cc1)c1cccc(Cl)c1", "True"],
  ["O=C(Nc1ccc(-c2cc3ccc(O)cc3oc2=O)cc1)c1ccc(F)cc1", "False"]
]}

###

system_under_test: AChE from Electrophorus electricus (Electrophorus electricus)
Construct: purchased Macklin
assay_overview: biochemical
Type: biochemical
setup_conditions: IC50 BuChE/IC50 AChE
experimental_endpoint: SI: selectivity index (IC50 BuChE/IC50 AChE)

{"columns": ["entry_smiles", "system_under_test", "measured_result"],
 "data": [
  ["COc1cccc2cc(-c3ccc(NC(=O)c4cccc(C)c4)cc3)c(=O)oc12", "AChE from Electrophorus electricus (Electrophorus electricus)", ">6.054"],
  ["O=C(Nc1ccc(-c2cc3ccc(O)c(O)c3oc2=O)cc1)c1ccc(CCl)cc1", "AChE from Electrophorus electricus (Electrophorus electricus)", ">1.037"],
  ["O=C(Nc1ccc(-c2cc3ccc(O)cc3oc2=O)cc1)c1ccccc1F", "AChE from Electrophorus electricus (Electrophorus electricus)", "<0.489"],
  ["COc1cccc2cc(-c3ccc(NC(=O)c4ccc(Cl)nc4)cc3)c(=O)oc12", "AChE from Electrophorus electricus (Electrophorus electricus)", 0.176],
  ["COc1cccc2cc(-c3ccc(NC(=O)c4cccs4)cc3)c(=O)oc12", "AChE from Electrophorus electricus (Electrophorus electricus)", 0.700],
  ["O=C(Nc1ccc(-c2cc3ccc(O)cc3oc2=O)cc1)c1cccc(Cl)c1", "AChE from Electrophorus electricus (Electrophorus electricus)", 1.319],
  ["Cc1cccc(C(=O)Nc2ccc(-c3cc4ccc(O)cc4oc3=O)cc2)c1", "AChE from Electrophorus electricus (Electrophorus electricus)", "<0.211"],
  ["COc1cccc2cc(-c3ccc(NC(=O)c4cccc(Cl)c4)cc3)c(=O)oc12", "AChE from Electrophorus electricus (Electrophorus electricus)", "<0.020"],
  ["O=C(Nc1ccc(-c2cc3ccc(O)cc3oc2=O)cc1)c1ccc(F)cc1", "AChE from Electrophorus electricus (Electrophorus electricus)", "<0.050"]
]}

###

system_under_test: BuChE from equine serum (Equus caballus)
Construct: Butyrylcholinesterase (BuChE, from equine serum, Aladdin, Shanghai, China)
Sequence (P81908 whole entry): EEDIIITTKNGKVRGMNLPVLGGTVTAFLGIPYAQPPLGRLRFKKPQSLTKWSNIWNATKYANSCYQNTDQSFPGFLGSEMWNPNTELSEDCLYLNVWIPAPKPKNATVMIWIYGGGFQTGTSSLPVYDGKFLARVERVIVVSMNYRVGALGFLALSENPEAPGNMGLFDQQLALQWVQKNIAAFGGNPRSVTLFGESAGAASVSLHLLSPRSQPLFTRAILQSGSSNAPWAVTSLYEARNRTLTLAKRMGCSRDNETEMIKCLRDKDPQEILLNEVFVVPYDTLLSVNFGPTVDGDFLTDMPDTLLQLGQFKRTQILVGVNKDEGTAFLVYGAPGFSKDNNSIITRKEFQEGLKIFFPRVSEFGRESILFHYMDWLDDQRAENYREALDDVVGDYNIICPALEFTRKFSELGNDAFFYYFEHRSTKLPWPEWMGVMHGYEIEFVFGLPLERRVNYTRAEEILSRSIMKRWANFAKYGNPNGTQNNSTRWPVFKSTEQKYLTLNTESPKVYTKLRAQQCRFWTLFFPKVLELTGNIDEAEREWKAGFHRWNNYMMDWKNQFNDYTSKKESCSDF
assay_overview: biochemical
setup_conditions: BuChE from equine serum; mean ± SD (n=3)
experimental_endpoint: IC50

{"columns": ["compound", "system_under_test", "experimental_endpoint", "measured_result"],
 "data": [
  ["COc1cccc2cc(-c3ccc(NC(=O)c4ccc(CCl)cc4)cc3)c(=O)oc12 [Compound 4m]", "BuChE from equine serum (Equus caballus)", "IC50", "41.2 µM"],
  ["COc1cccc2cc(-c3ccc(NC(=O)c4cccc5ccccc45)cc3)c(=O)oc12 [Compound 6b]", "BuChE from equine serum (Equus caballus)", "IC50", "> 50 µM"],
  ["O=C(Nc1ccc(-c2cc3ccc(O)cc3oc2=O)cc1)c1cccc2ccccc12 [Compound 6a]", "BuChE from equine serum (Equus caballus)", "IC50", "> 50 µM"],
  ["COc1cccc2cc(-c3ccc(NC(=O)c4ccc(Cl)nc4)cc3)c(=O)oc12 [Compound 7c]", "BuChE from equine serum (Equus caballus)", "IC50", "3.38 µM"],
  ["O=C(Nc1ccc(-c2cc3ccc(O)cc3oc2=O)cc1)c1ccc2ccccc2c1 [Compound 7a]", "BuChE from equine serum (Equus caballus)", "IC50", "2.07 µM"],
  ["COc1cccc2cc(-c3ccc(NC(=O)c4cccc(Cl)c4Cl)cc3)c(=O)oc12 [Compound 4r]", "BuChE from equine serum (Equus caballus)", "IC50", "4.33 µM"],
  ["O=C(Nc1ccc(-c2cc3ccc(O)cc3oc2=O)cc1)c1cccc(Cl)c1 [Compound 4f]", "BuChE from equine serum (Equus caballus)", "IC50", "2.56 µM"],
  ["COc1cccc2cc(-c3ccc(NC(=O)c4ccccc4F)cc3)c(=O)oc12 [Compound 4p]", "BuChE from equine serum (Equus caballus)", "IC50", "16 µM"],
  ["O=C(Nc1ccc(-c2cc3ccc(O)cc3oc2=O)cc1)c1ccc(F)cc1 [Compound 4b]", "BuChE from equine serum (Equus caballus)", "IC50", "2.44 µM"],
  ["COc1cccc2cc(-c3ccc(NC(=O)c4ccc5ccccc5c4)cc3)c(=O)oc12 [Compound 7b]", "BuChE from equine serum (Equus caballus)", "IC50", "43.8 µM"],
  ["O=C(Nc1ccc(-c2cc3ccc(O)cc3oc2=O)cc1)c1cccc(F)c1 [Compound 4a]", "BuChE from equine serum (Equus caballus)", "IC50", "3.89 µM"],
  ["Cc1cc(C)cc(C(=O)Nc2ccc(-c3cc4ccc(O)cc4oc3=O)cc2)c1 [Compound 4i]", "BuChE from equine serum (Equus caballus)", "IC50", "2.26 µM"],
  ["COc1cccc2cc(-c3ccc(NC(=O)c4ccco4)cc3)c(=O)oc12 [Compound 5b]", "BuChE from equine serum (Equus caballus)", "IC50", "4.62 µM"],
  ["O=C(Nc1ccc(-c2cc3ccc(O)cc3oc2=O)cc1)c1ccco1 [Compound 5a]", "BuChE from equine serum (Equus caballus)", "IC50", "9.55 µM"],
  ["Cc1cccc(C(=O)Nc2ccc(-c3cc4ccc(O)cc4oc3=O)cc2)c1 [Compound 4e]", "BuChE from equine serum (Equus caballus)", "IC50", "10.6 µM"],
  ["O=C(Nc1ccc(-c2cc3ccc(O)cc3oc2=O)cc1)c1ccc(CCl)cc1 [Compound 4d]", "BuChE from equine serum (Equus caballus)", "IC50", "8.9 µM"],
  ["O=C(Nc1ccc(-c2cc3ccc(O)cc3oc2=O)cc1)c1ccccc1F [Compound 4g]", "BuChE from equine serum (Equus caballus)", "IC50", "24.5 µM"],
  ["COc1cccc2cc(-c3ccc(NC(=O)c4cccs4)cc3)c(=O)oc12 [Compound 7d]", "BuChE from equine serum (Equus caballus)", "IC50", "4.65 µM"],
  ["COc1cccc2cc(-c3ccc(NC(=O)c4ccc(C(F)(F)F)cc4)cc3)c(=O)oc12 [Compound 4l]", "BuChE from equine serum (Equus caballus)", "IC50", "4.32 µM"]
]}

###

Listed compounds paired with reported SI: selectivity index (IC50 BuChE/IC50 AChE)
system_under_test: AChE from Electrophorus electricus (Electrophorus electricus, UniProt O42275)
Construct: purchased Macklin
assay_overview: biochemical
Format: biochemical
setup_conditions: IC50 BuChE/IC50 AChE
experimental_endpoint: SI: selectivity index (IC50 BuChE/IC50 AChE)

{"columns": ["entry_smiles", "inequality_symbol", "measured_result"],
 "data": [
  ["COc1cccc2cc(-c3ccc(NC(=O)c4cccc(F)c4)cc3)c(=O)oc12", "=", 0.217],
  ["COc1cccc2cc(-c3ccc(NC(=O)c4ccc5ccccc5c4)cc3)c(=O)oc12", "=", 341.87],
  ["O=C(Nc1ccc(-c2cc3ccc(O)cc3oc2=O)cc1)c1cccc2ccccc12", ">", 2.612],
  ["O=C(Nc1ccc(-c2cc3ccc(O)cc3oc2=O)cc1)c1ccco1", "=", 3.842],
  ["COc1cccc2cc(-c3ccc(NC(=O)c4ccccc4F)cc3)c(=O)oc12", "=", 0.326],
  ["COc1cccc2cc(-c3ccc(NC(=O)c4cccc(Cl)c4Cl)cc3)c(=O)oc12", "=", 0.220]
]}

###

Listed molecules paired with reported log10 IC50
system_under_test: UniProtKB O42275
experimental_endpoint: log10 IC50 (log10 of the value in µM)

{"columns": ["molecule", "log10 IC50"],
 "data": [
  ["COc1cccc2cc(-c3ccc(NC(=O)c4cccc(C)c4)cc3)c(=O)oc12 [Compound 4o]", 0.92],
  ["COc1cccc2cc(-c3ccc(NC(=O)c4ccc(C(F)(F)F)cc4)cc3)c(=O)oc12 [Compound 4l]", 0.75],
  ["O=C(Nc1ccc(-c2cc3ccc(O)cc3oc2=O)cc1)c1ccco1 [Compound 5a]", 0.40],
  ["COc1cccc2cc(-c3ccc(NC(=O)c4ccc5ccccc5c4)cc3)c(=O)oc12 [Compound 7b]", -0.89],
  ["COc1ccccc1C(=O)Nc1ccc(-c2cc3cccc(OC)c3oc2=O)cc1 [Compound 4q]", 1.68],
  ["COc1cccc2cc(-c3ccc(NC(=O)c4ccc(CCl)cc4)cc3)c(=O)oc12 [Compound 4m]", -1.04],
  ["O=C(Nc1ccc(-c2cc3ccc(O)cc3oc2=O)cc1)c1cccc2ccccc12 [Compound 6a]", 1.28],
  ["COc1cccc2cc(-c3ccc(NC(=O)c4ccccc4F)cc3)c(=O)oc12 [Compound 4p]", 1.69],
  ["COc1cccc2cc(-c3ccc(NC(=O)c4ccco4)cc3)c(=O)oc12 [Compound 5b]", 1.67],
  ["COc1cccc2cc(-c3ccc(NC(=O)c4cccc(Cl)c4Cl)cc3)c(=O)oc12 [Compound 4r]", 1.29],
  ["COc1cccc2cc(-c3ccc(NC(=O)c4ccc(F)cc4)cc3)c(=O)oc12 [Compound 4k]", 1.45]
]}
